# target-entity: ERalpha (estrogen receptor) (Homo sapiens)
# Sequence (P03372 whole entry): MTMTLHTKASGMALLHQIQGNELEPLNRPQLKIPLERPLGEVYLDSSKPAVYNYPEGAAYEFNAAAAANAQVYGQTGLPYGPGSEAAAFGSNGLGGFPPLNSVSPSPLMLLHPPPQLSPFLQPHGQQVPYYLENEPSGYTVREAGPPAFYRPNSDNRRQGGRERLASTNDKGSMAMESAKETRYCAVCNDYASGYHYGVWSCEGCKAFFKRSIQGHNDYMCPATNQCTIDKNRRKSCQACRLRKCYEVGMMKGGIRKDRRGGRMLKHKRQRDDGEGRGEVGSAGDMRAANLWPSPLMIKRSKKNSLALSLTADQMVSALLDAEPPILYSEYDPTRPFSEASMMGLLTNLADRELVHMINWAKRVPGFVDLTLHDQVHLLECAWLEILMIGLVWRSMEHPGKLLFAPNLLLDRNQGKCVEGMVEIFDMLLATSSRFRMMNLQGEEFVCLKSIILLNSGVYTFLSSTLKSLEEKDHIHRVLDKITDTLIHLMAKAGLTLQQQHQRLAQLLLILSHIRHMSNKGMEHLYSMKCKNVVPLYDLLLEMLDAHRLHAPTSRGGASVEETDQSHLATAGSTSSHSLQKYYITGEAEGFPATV
# test-method-notes: Agonist activity at ERalpha (unknown origin) expressed in human U2OS cells after 24 hrs by luciferase reporter gene assay relative to E2
# Assay type: cell-based
# test-context: U2OS cells expressing ERalpha, read-out: Activity
measured-attribute: Emax at 24 h

What is its Emax at 24 h for ERalpha (estrogen receptor) (Homo sapiens)? Entry: O=C(c1ccc(F)c(O)c1)c1cccc(-c2cccc(O)c2F)n1
13%

====

I'd appreciate it if you could supply pKi values for the items below.
# target-entity: 17-beta-hydroxysteroid dehydrogenase 14 (Homo sapiens)
# Sequence (Q9BPX1 whole entry): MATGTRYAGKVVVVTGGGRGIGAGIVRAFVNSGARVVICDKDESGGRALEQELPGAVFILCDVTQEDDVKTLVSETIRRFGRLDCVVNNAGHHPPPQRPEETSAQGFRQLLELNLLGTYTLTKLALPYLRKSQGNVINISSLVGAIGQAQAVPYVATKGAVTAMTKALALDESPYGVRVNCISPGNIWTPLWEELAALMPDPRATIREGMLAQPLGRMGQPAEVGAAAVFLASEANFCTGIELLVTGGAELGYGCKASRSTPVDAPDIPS
# test-method-notes: Binding affinity to recombinant 17beta-HSD14 (unknown origin) expressed in Escherichia coli BL21 pLysS strain using E2 as substrate in presence of NAD measured continuously for 15 mins by fluorimetric method
Answers are plain numbers, as −log10 of the molar value.

Worked examples follow.
O=C(Nc1cccc(-c2cccc(O)c2F)n1)c1ccc(F)c(O)c1 :: 6.16
CN(c1ccc(F)c(O)c1)c1cccc(-c2cccc(O)c2F)n1 :: 7.38
Nc1ccc2ccc(C(=O)c3ccc(F)c(O)c3)nc2c1 :: 7.47
Cc1ccc2nc(C(=O)c3ccc(F)c(O)c3)ccc2c1 :: 8.22
O=C(c1ccc(F)c(O)c1)c1ccc2ccccc2n1 :: 7.92

Required: pKi, one value per compound below.
1. N#Cc1ccc2ccc(C(=O)c3ccc(F)c(O)c3)nc2c1
2. O=C(Nc1ccc(F)c(O)c1)c1cccc(-c2cccc(O)c2F)n1
3. O=C(c1ccc(F)c(O)c1)c1ccc2ccccc2c1
4. O=C(c1ccc(F)c(O)c1)c1ccc2ccc(-c3nnn[nH]3)cc2n1
5. C=C(c1ccc(F)c(O)c1)c1cccc(-c2cccc(O)c2F)n1
6. O=C(c1ccc(F)c(O)c1)c1ccc2cc(O)ccc2n1
7. CN(C(=O)c1ccc(F)c(O)c1)c1cccc(-c2cccc(O)c2F)n1
8. Cc1cc(-c2ccc3ccc(C(=O)c4ccc(F)c(O)c4)nc3c2)ccc1O

[8.05, 6.47, 8.22, 8.00, 8.82, 6.92, 5.69, 8.22]

I'm hoping you can list pKi for every compound here, please.
1. Oc1cc(Oc2cccc(-c3cccc(O)c3F)n2)ccc1F
2. Oc1cc(Nc2cccc(-c3cccc(O)c3F)n2)ccc1F

7.24
7.33
